Kindly supply the reported TGI values for the records listed here.
# System: SR leukemia
# PROCEDURE_TEXT: NCI tumour cell line growth inhibition, 48 h

Need TGI for each of these compounds.
1. Cc1ccc2c(c1)O/C(=C\c1ccc([N+](=O)[O-])o1)C2=O
2. Cc1cnoc1NS(=O)(=O)c1ccc(Nc2nnc(/C=C/c3c(O)ccc4ccccc34)c(=O)n2N)cc1
3. COC(=O)c1ccccc1NC(=O)C(=O)CC(=O)CC(c1ccccc1)c1c(O)c2ccccc2oc1=O (stereo unspecified)

1: 0.799 µM; 2: 55.6 µM; 3: > 100 µM

Need TGI for each of these compounds.
1. COc1ccc([C@]23CCN(S(=O)(=O)c4ccc(C)cc4)[C@H]2[C@H](CO)C2(CC3)OCC(C)(C)CO2)cc1OC
2. Cn1c2ccccc2n2c3ccccc3c(=O)c(C#N)c12
3. CC(=O)C(=[N+]=[N-])C(=O)OCCOC(=O)C(=[N+]=[N-])C(C)=O
4. CN(C)CCc1ccnc2nc(-c3ccc4ccccc4c3)cn12

1. > 100 µM
2. 48.3 µM
3. > 1 µM
4. > 100 µM

Need TGI for each of these compounds.
1. O=C(O)c1cscc1Cc1cccs1
2. O=S(=O)(NC1OCCCC1I)c1ccccc1 (stereo unspecified)

> 100 µM
> 100 µM

Need TGI for each of these compounds.
1. CCOC(=O)N[C@H]1CCc2c(Br)c(OC)c(OC)c(OC)c2-c2ccc(SC)c(=O)cc21
2. COc1ccc(NS(=O)c2ccccc2OC)cc1 (stereo unspecified)

["> 37.3 µM", "> 100 µM"]

###

Kindly supply the reported TGI values for the records listed here.
# System: HOP-92 NSCLC
# PROCEDURE_TEXT: NCI tumour cell line growth inhibition, 48 h
Give bare numbers, in µM.

Need TGI for each of these compounds.
1. C#C[C@]1(O)CC[C@H]2[C@@H]3CCC4=C/C(=N\OCCN(CC)CC)CC[C@]4(C)[C@H]3CC[C@@]21C
2. COc1cc(NCc2ccccc2O)c2ncccc2c1
3. O=[N+]([O-])c1ccc(/C=C(/c2ccc([N+](=O)[O-])o2)S(=O)(=O)c2ccccc2)o1
4. CCCCCCC#CC#Cc1cccc(=O)o1
5. CCOC(=O)N[C@H]1CCc2c(Br)c(OC)c(OC)c(OC)c2-c2ccc(SC)c(=O)cc21
6. CCCCCCCCCCCCCC(=O)C(C)N (stereo unspecified)
7. COc1ccc(/C=C/C(=O)c2cc3c(N)c(C(=O)Nc4ccccc4C)sc3nc2C)cc1
8. C(=C\c1nccc2c1[nH]c1ccccc12)/c1ccccc1

52.9
30.3
27.8
8.92
6.19
19.2
32.3
19.8

###

Kindly supply the reported GI50 values for the records listed here.
# Test system: UO-31 renal
# PROCEDURE_TEXT: NCI tumour cell line growth inhibition, 48 h

Study these solved cases before continuing.
INSERT INTO assay_data (molecule, value) VALUES
  ('COc1cc(C2=NN(c3ccc(S(N)(=O)=O)cc3)C(c3ccc(Cl)cc3)C2)cc(OC)c1OC (stereo not drawn)', '2500 nM'),
  ('CCOC(=O)N[C@H]1CCc2c(Br)c(OC)c(OC)c(OC)c2-c2ccc(SC)c(=O)cc21', '131 nM'),
  ('COc1ccc(/C=C/C(=O)c2cc3c(N)c(C(=O)Nc4ccccc4C)sc3nc2C)cc1', '861 nM');

Need GI50 for each of these molecules.
1. O=C(O)c1cc(Cc2ccc(O)c(C(=O)O)c2)ccc1O (tested in a mixture with another compound)
2. COC(=O)C1(C2CC/C(C)=C/CC/C(C)=C/CC[C@@]3(C)O[C@@H]3C2)CC1 (stereo partly drawn)
3. Cc1ccc(C2C3=C(N=c4s/c(=C/c5ccc(Br)cc5)c(=O)n42)c2ccc4ccccc4c2OCC3)cc1 (stereo not drawn)
4. CS(=O)(=O)CCn1c(=O)c(Oc2ccc(F)cc2F)cc2cnc(NC3CCOCC3)nc21
5. Cc1ccc(NC(=O)c2[nH]c(SCCN(C)C)nc2-c2ccc(F)cc2)cc1C#Cc1cnc2cccnn12

1. 3990 nM
2. 26600 nM
3. > 100000 nM
4. > 25000 nM
5. 1380 nM

###

# Test system: U251 CNS
# PROCEDURE_TEXT: NCI tumour cell line growth inhibition, 48 h
RESULT_TYPE: TGI (µM)
Numbers only, in µM.

INSERT INTO measurements (chem_smiles, tested_system, output_unit, value) VALUES
  ('COc1cc2cc(Oc3ccc(NC(=O)Nc4ccc(Cl)c(C(F)(F)F)c4)cc3)c(C)nc2cc1OC', 'U251 CNS', 'µM', 3.78),
  ('Cc1ccc2c(c1)O/C(=C\c1ccc([N+](=O)[O-])o1)C2=O', 'U251 CNS', 'µM', 3.98),
  ('COc1ccc(/C=C(/C)[N+](=O)[O-])cc1', 'U251 CNS', 'µM', 3.05);

Kindly consider the entry below.
Any idea what TGI was measured for N#C/C(N)=C(\C#N)N=Cc1csc2ccccc12 ?
45.3

###

# Tested on: SR leukemia
# PROCEDURE_TEXT: NCI tumour cell line growth inhibition, 48 h; in the data active = GI50 below about 0.43 µM; inactive = the rest
Valid outcomes are listed here; reply with one: active, inactive

Take a look at these entries with their results.
INSERT INTO measurements (compound, class_label) VALUES
  ('COc1cc2cc(Oc3ccc(NC(=O)Nc4ccc(Cl)c(C(F)(F)F)c4)cc3)c(C)nc2cc1OC', 'inactive'),
  ('C/C1=C/C(=O)O[C@@H]2C[C@@H](CC[C@H](C)/C=C\C=C\CC1)O[C@@](OCCc1ccccc1)([C@@H]1CSC(=O)N1)C2', 'active'),
  ('CNC(=O)OC1C(O[C@H]2C[C@H]3[C@@H]4CC=C5C[C@@H](O)CC[C@]5(C)[C@H]4CC[C@]3(C)[C@H]2[C@H](C)C(=O)CCC(C)C)OCC(O)C1OC1OCC(O)C(O)C1OC(=O)c1ccc(OC)cc1 (some centres undefined)', 'active');

From here, focus on the item given below.
Could you please tell me the result logged for NC(=S)N/N=C\c1nccc2c(N)cccc12 in this assay?
active

###

# Test system: LOX IMVI melanoma
# PROCEDURE_TEXT: NCI tumour cell line growth inhibition, 48 h
RESULT_TYPE: TGI

Study these solved cases before continuing.
INSERT INTO assay_data (compound, value) VALUES
  ('C[C@H](CCC(=O)O)[C@H]1CC[C@H]2[C@@H]3[C@H](O)C[C@@H]4C[C@H](O)CC[C@]4(C)[C@H]3CC[C@]12C', '> 100 µM'),
  ('COC(=O)CCc1cccnc1/C=N/O', '> 100 µM'),
  ('COc1ccc(NS(=O)c2ccccc2OC)cc1 (stereo unspecified)', '> 100 µM'),
  ('C#C[C@H](CCCC)OC(=O)N[C@H](C)c1ccccc1', '87.8 µM'),
  ('Oc1c(I)cc(-c2nc3ccccc3s2)cc1CN(Cc1ccccn1)Cc1ccccn1', '1.38 µM');

Kindly consider the entry below.
Any idea what TGI was measured for NC(Cc1ccnnc1)C(=O)O (stereo unspecified) ?
> 100 µM

###

# Tested on: DU-145 prostate
# PROCEDURE_TEXT: NCI tumour cell line growth inhibition, 48 h
RESULT_TYPE: TGI (µM)
One number for each entry, in µM.

Study these solved cases before continuing.
INSERT INTO assay_data (compound, value) VALUES
  ('COC(OC)C1OC(CO)C(n2cc(F)c(=O)[nH]c2=O)C1O (stereo not given)', 64.4),
  ('C=CCC(N[C@H](CO)c1ccccc1)c1cn(S(=O)(=O)c2ccc(C)cc2)c2ccccc12 (stereo not given in full)', 67.2),
  ('COC1C(O)C(C)OC(OC2CC3CCC4C(CCC5(C)C(C6=CC(=O)OC6)CCC45O)C3(O)C(OC(C)=O)C2)C1O (stereo not given)', 1.65),
  ('CCCCCCC#CC#Cc1cccc(=O)o1', 8.26);

GET /values?readout=TGI&system=DU-145 prostate&item= CN1CCN(CCNc2ccc(CO)c3sc4ccccc4c(=O)c23)CC1
11.9

###

# Tested on: MALME-3M melanoma
# PROCEDURE_TEXT: NCI tumour cell line growth inhibition, 48 h
Kindly supply the reported TGI values for the records listed here.
Numbers only, in µM.

INSERT INTO assay_data (chem_smiles, output_unit, value) VALUES
  ('CC(=O)Oc1cc(C)c(OC(C)=O)c2c1[C@H]1CC[C@]3(C)[C@@H](OC(C)=O)CC[C@H]3[C@@H]1CC2', 'µM', 36);

Any idea what TGI was measured for Cn1c2ccccc2c(=O)c2c([N+](=O)[O-])ccc(NCCN)c21 ?
28.9

###

# System: HT29 colon
# PROCEDURE_TEXT: NCI tumour cell line growth inhibition, 48 h
RESULT_TYPE: TGI

INSERT INTO assay_data (compound, value) VALUES
  ('O=C(O)C(O)C(O)C(O)C(=O)CO (centres undefined)', '> 100 µM');

Need TGI for each of these compounds.
1. COC(=O)OCc1ccc2c(c1)C(=O)c1c-2n(CCCBr)c(=O)c2cc([N+](=O)[O-])ccc12
2. COc1ccc(C(=O)COc2cccc(/C=C3\CSc4ccc(Cl)cc4C3=O)c2)cc1
3. CC(C)C1OC(=O)/C=C/C=C/C=C/C=C/C=C/CC(O)C(C)C(O)CC(O)CC(O)CC(O)CC(O)CC(O)CC(O)/C=C/C1C (centres undefined)
4. CC1(C)CCC[C@]2(C)[C@@H]1CC[C@@]13O[C@@H]1C1=C(CO)C(=O)OC1=C[C@@H]23
5. O=C(O)Cn1c(=O)[nH]c(=O)c2[nH]cnc21
6. CSc1nc2c(c(O)c(C)c(=O)n2C2OCC(OC(C)=O)C(OC(C)=O)C2OC(C)=O)c(=O)n1C (centres undefined)

1. > 100 µM
2. 11.4 µM
3. > 100 µM
4. 29.6 µM
5. > 100 µM
6. > 100 µM

Need TGI for each of these compounds.
1. CCNc1nc2c(ncn2C2CC(O)C(COP(=O)(O)O)O2)c(=O)[nH]1 (centres undefined)
2. CC(C)(Oc1ccc2c(=O)cc(-c3ccccc3)oc2c1)C(=O)Nc1c(Cl)cccc1Cl

1: > 100 µM; 2: > 100 µM
